System: Staphylococcus aureus
Quantity Measured: MIC (µM)
Give the value in µM but do not write µM after it.

CC[C@H](C)[C@H](NC(=O)[C@H](CC(C)C)NC(=O)[C@H](CCCCN)NC(=O)[C@H](CCCCN)NC(=O)[C@H](CC(C)C)NC(=O)[C@H](CCCN=C(N)N)NC(=O)[C@H](CCCCN)NC(=O)[C@@H](N)Cc1ccccc1)C(=O)N[C@@H](CO)C(=O)N[C@@H](Cc1c[nH]c2ccccc12)C(=O)N[C@H](C(=O)N[C@@H](CCCCN)C(=O)N[C@@H](CCCN=C(N)N)C(=O)N[C@@H](CCCCN)C(=O)N[C@@H](CCCN=C(N)N)C(=O)N[C@@H](CCC(N)=O)C(=O)N[C@@H](CCC(N)=O)C(N)=O)[C@@H](C)CC; 1.41

# "CC(C)C[C@H](NC(=O)CNC(=O)[C@H](CCCCN)NC(=O)[C@H](C)NC(=O)[C@H](CC(C)C)NC(=O)[C@H](CCCCN)NC(=O)[C@H](C)NC(=O)[C@H](CC(C)C)NC(=O)CNC(=O)[C@H](CCCCN)NC(=O)[C@H](C)NC(=O)[C@H](Cc1c[nH]c2ccccc12)NC(=O)[C@H](CCCCN)NC(=O)[C@H](C)NC(=O)[C@H](CC(C)C)NC(=O)CNC(=O)[C@H](CCCCN)NC(=O)[C@H](C)NC(=O)[C@H](CC(C)C)NC(=O)[C@@H](N)CCCCN)C(=O)N[C@@H](C)C(N)=O" with Staphylococcus aureus: MIC is 3.74

----------
Tested on: Pseudomonas aeruginosa PAO1
Assay: ≥ marks a high value that may be exact or a test limit, other limits are often not marked, values filed in µg/mL are converted to µM
Quantity Measured: MIC (µM)
Kindly answer with a numeric value in µM, unit omitted.

Field: example entries. Status: answers known.
CC[C@H](C)[C@H](NC(=O)[C@H](CCCN=C(N)N)NC(=O)[C@@H](NC(=O)[C@H](CCCN=C(N)N)NC(=O)[C@H](Cc1c[nH]c2ccccc12)NC(=O)[C@H](CCC(N)=O)NC(=O)[C@@H](N)C(C)C)[C@@H](C)CC)C(=O)N[C@@H](C)C(=O)N[C@H](C(=O)N[C@H](C(=O)N[C@@H](CCCN=C(N)N)C(=O)N[C@@H](CCCCN)C(=O)O)[C@@H](C)CC)C(C)C; 20.8
CC[C@H](C)[C@H](NC(=O)[C@H](CCCN=C(N)N)NC(=O)[C@H](Cc1c[nH]c2ccccc12)NC(=O)[C@H](CCC(N)=O)NC(=O)[C@@H](N)CCCCN)C(=O)N[C@@H](CCCN=C(N)N)C(=O)N[C@H](C(=O)N[C@@H](CS)C(=O)N[C@H](C(=O)N[C@H](C(=O)N[C@@H](CCCN=C(N)N)C(=O)N[C@@H](C)C(=O)O)[C@@H](C)CC)C(C)C)C(C)C; 41.9
CC[C@H](C)[C@H](NC(=O)[C@H](Cc1cnc[nH]1)NC(=O)[C@@H](NC(=O)[C@@H](NC(=O)[C@H](CCCCN)NC(=O)[C@H](CCCN=C(N)N)NC(=O)[C@@H](NC(=O)[C@@H](NC(=O)[C@@H](N)CCCN=C(N)N)[C@@H](C)CC)[C@@H](C)CC)[C@@H](C)CC)[C@@H](C)CC)C(=O)N[C@H](C(=O)N[C@@H](CCCCN)C(N)=O)[C@@H](C)CC; 3.56
CC(C)C[C@H](NC(=O)[C@H](CC(C)C)NC(=O)[C@H](CCCCN)NC(=O)[C@H](CCCCN)NC(=O)[C@H](CC(C)C)NC(=O)[C@H](CC(C)C)NC(=O)[C@H](CCCCN)NC(=O)[C@H](CCCCN)NC(=O)[C@@H](N)CC(C)C)C(=O)N[C@@H](CCCCN)C(N)=O; 62.5

Please examine the following record next.
Documented MIC of "CC(C)C[C@H](NC(=O)[C@H](CC(C)C)NC(=O)[C@H](CCCCN)NC(=O)CNC(=O)[C@H](CC(C)C)NC(=O)[C@H](CC(C)C)NC(=O)[C@H](CO)NC(=O)[C@H](CC(C)C)NC(=O)[C@H](CC(C)C)NC(=O)[C@H](CO)NC(=O)[C@H](CC(C)C)NC(=O)[C@H](C)NC(=O)CN)C(N)=O" : 12.5
